B1: BTBD1 (parent)
chain: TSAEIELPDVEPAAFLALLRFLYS

Variants of: B1
Test: protein stability index of a GFP-peptide fusion (GPS, HEK-293T) (PSI 1-6); higher = more stable;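 also: lentivirally expressed fusions sorted by FACS into six bins by GFP to DsRed ratio, PSI derived from sequencing read proportions per bin multiplied by bin number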
Details: c terminus: a fixed tail appended
Everything with protein stability index lower than 2 is Criterion not met; everything else, including exactly 2, is Criterion met.

Completed entries (count: 4):
seq	class
TSAEIELPDVEPAAFLALLRFLYV	Criterion met
TWAEIELPDVEPAAFLALLRFLYS	Criterion not met
KSAEIELPDVEPAAFLALLRFLYS	Criterion met
TSAEIELPDVEPAAFLADLRFLYS	Criterion met

Check the entry TSAEIELPDVEPAAFLRLLRFLYS : does protein stability index equal or exceed 2?
Criterion met
